The reader will find reported pKd values listed item by item below.
# Target or system: T1, human PD-L1 ECD-His (human, UniProt Q9NZQ7 19-238)
# T1 construct: extracellular domain; Analyte in all SPR and BLI runs; also called hPD-L1_ECD-His; hPD-L1 ECD-His; not shown: His tag
# T1 sequence (Q9NZQ7 19-238): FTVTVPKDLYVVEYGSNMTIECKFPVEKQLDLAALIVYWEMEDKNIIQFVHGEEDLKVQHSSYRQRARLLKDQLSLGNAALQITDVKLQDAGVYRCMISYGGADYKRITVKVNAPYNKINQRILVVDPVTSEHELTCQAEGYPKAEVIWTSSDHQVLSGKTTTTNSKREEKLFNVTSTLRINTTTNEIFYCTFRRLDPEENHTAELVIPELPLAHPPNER
# Test protocol: BLI Octet RED96, antibody on AHC anti-human-Fc sensor, hPD-L1-His analyte, 1:1 fit
# Method: Briefly, black 96-well plate was prepared with columns containing 200 μL/well of reagents required for determination of affinity. […] Association was then measured by incubating the sensors for 3 minutes in wells containing hPD-L1-His followed by transferring to wells containing 1×Kinetics Buffer for 10 minutes to measure dissociation. […] All data were analyzed with Octet Data Analysis Software v.9.0 and representative of two independent experiments performed in duplicate. […]
pKd: −log10 of the molar value.
Observable: pKd

Binder | Test value
PL3#7-19 deglyco1 mtIgG1 (antibody, V domains shown, N297A mutant human IgG1; also called PL3#7-19 deglycol) VH: QVQLVQSGAEVKKPGSSVKVSCKASGGTFSSYPISWVRQAPGQGLEWMGRIIPILGIANYAQKFQGRVTITADKSTSTAYMELSSLRSEDTAVYYCARSRDGYAFGAFDVWGQGTLVTVSS VL: QSVVTQPPPVSGAPGQRVTISCTGSSSNIGGGYDVHWYQQLPGTAPKLLIYGNSNRPSGVPDRFSGSKSGTSASLAITGLQAEDEADYYCQTYDSSLSATVVFGGGTKLTVLG | 9.38
PL3#7-43 deglyco1 mtIgG1 (antibody, V domains shown, N297A mutant human IgG1; also called PL3#7-43 deglycol) VH: QVQLVQSGAEVKKPGSSVKVSCKASGGTFSSYPISWVRQAPGQGLEWMGRIIPILGIANYAQKFQGRVTITADKSTSTAYMELSSLRSEDTAVYYCARSRPGYAFGAFDIWGQGTLVTVSS VL: QSVVTQPPPVSGAPGQRVTISCTGSSSNVGAGYDVHWYQQLPGTAPKLLIYGNSNRPSGVPDRFSGSKSGTSASLAITGLQAEDEADYYCQTYDSSGSARVVFGGGTKLTVLG | 9.36
PL3#7-43 deglyco2 mtIgG1 (antibody, V domains shown, N297A mutant human IgG1; also called PL3#7-43 deg1yco2) VH: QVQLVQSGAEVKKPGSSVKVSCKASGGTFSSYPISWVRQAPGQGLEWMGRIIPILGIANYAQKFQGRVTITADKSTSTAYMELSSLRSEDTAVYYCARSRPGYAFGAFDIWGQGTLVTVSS VL: QSVVTQPPPVSGAPGQRVTISCTGSSSNVGAGYDVHWYQQLPGTAPKLLIYGNSQRSSGVPDRFSGSKSGTSASLAITGLQAEDEADYYCQTYDSSGSARVVFGGGTKLTVLG | 9.40
PL3#7-43 mtIgG1 (antibody, V domains shown, Antibody was biotinylated (NHS-PEG4-biotin, sites not specified) for the Octet assay of Table 11., N297A mutant human IgG1; also called PL3#7-43 parental mtIgG1) VH: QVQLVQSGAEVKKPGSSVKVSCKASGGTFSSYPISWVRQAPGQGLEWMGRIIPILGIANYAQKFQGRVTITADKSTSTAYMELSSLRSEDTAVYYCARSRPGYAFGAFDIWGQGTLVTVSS VL: QSVVTQPPPVSGAPGQRVTISCTGSSSNVGAGYDVHWYQQLPGTAPKLLIYGNSNRSSGVPDRFSGSKSGTSASLAITGLQAEDEADYYCQTYDSSGSARVVFGGGTKLTVLG | 9.46
PL3#7-19 mtIgG1 (antibody, V domains shown, Antibody was biotinylated (NHS-PEG4-biotin, sites not specified) for the Octet assay of Table 11., N297A mutant human IgG1; also called PL3#7-19 parental mtIgG1) VH: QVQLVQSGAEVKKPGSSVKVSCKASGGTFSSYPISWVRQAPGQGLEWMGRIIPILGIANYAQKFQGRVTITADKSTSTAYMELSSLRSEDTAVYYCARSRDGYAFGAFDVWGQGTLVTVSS VL: QSVVTQPPPVSGAPGQRVTISCTGSSSNIGGGYDVHWYQQLPGTAPKLLIYGNSTRPSGVPDRFSGSKSGTSASLAITGLQAEDEADYYCQTYDSSLSATVVFGGGTKLTVLG | 9.21
PL3#7-19 deglyco2 mtIgG1 (antibody, V domains shown, N297A mutant human IgG1) VH: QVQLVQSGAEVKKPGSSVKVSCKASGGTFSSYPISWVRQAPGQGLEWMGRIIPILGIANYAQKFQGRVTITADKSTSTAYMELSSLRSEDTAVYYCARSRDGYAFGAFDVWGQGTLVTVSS VL: QSVVTQPPPVSGAPGQRVTISCTGSSSNIGGGYDVHWYQQLPGTAPKLLIYGQSTRPSGVPDRFSGSKSGTSASLAITGLQAEDEADYYCQTYDSSLSATVVFGGGTKLTVLG | 9.43
